# Tested on: C. neoformans ATCC 32264
# TEST PROTOCOL: Antifungal broth microdilution (CLSI M27-A3), growth inhibition
# Format: cell-based, Cryptococcus neoformans
# CONDITION INFO: 62.5 μg∙mL^−1, 48 h
# Method: The antifungal properties of compounds 1–24 against two clinical important fungal species, C. albicans ATCC 10231 and C. neoformans ATCC 32264 were investigated. Results were expressed as the percentages of inhibition of each fungus in the range 250–3.9 μg∙mL^−1 by using the standardized microbroth dilution method M-27A3 of Clinical and Laboratory Standards Institute which assures reliable and reproducible results. […]
Recorded Inhibition percentage against C. neoformans ATCC 32264 determines the label; the label ranges are low bin = under 10%, mid bin = from 10% up to 20%, high bin = 20% and over

COC(=O)C12CCCC(C)(C)C1CCc1cc(C(C)C)c(OC(=O)CCc3cn(Cc4ccc([N+](=O)[O-])cc4)nn3)c(OC(=O)CCc3cn(Cc4ccc([N+](=O)[O-])cc4)nn3)c12 (stereo not drawn)    mid bin
COC(=O)C12CCCC(C)(C)C1CCc1cc(C(C)C)c(OC(=O)CCc3cn(Cc4ccccc4)nn3)c(OC(=O)CCc3cn(Cc4ccccc4)nn3)c12 (stereo not drawn)    mid bin
CC(C)c1cc2c(c(OC(=O)CCCc3cn(Cc4ccc(Br)cc4)nn3)c1OC(=O)CCCc1cn(Cc3ccc(Br)cc3)nn1)C13CCCC(C)(C)C1CC2OC3=O (stereo not drawn)    high bin
CC(C)c1cc2c3c(c1OC(=O)CCCc1cn(CSc4ccccc4)nn1)OC(=O)C31CCCC(C)(C)C1CC2 (stereo not drawn)    high bin

Query block: Lab log: CC(C)c1cc2c3c(c1OC(=O)CCc1cn(CSc4ccccc4)nn1)OC(=O)[C@@]31CCCC(C)(C)[C@@H]1CC2 — assign Inhibition percentage against C. neoformans ATCC 32264 category
Result block: low bin

Query block: Sort into band: CC(C)c1cc2c(c(OC(=O)CCCc3cn(Cc4ccc([N+](=O)[O-])cc4)nn3)c1OC(=O)CCCc1cn(Cc3ccc([N+](=O)[O-])cc3)nn1)C13CCCC(C)(C)C1CC2OC3=O (stereo not drawn)
Result block: high bin

Query block: GET /class?item= CC(C)c1cc2c(c(OC(=O)CCc3cn(CSc4ccccc4)nn3)c1OC(=O)CCc1cn(CSc3ccccc3)nn1)C13CCCC(C)(C)C1CC2OC3=O (stereo not drawn)
Result block: low bin

Query block: Into which bin does this compound go? CC(C)c1cc2c(c(OC(=O)CCCc3cn(CSc4ccccc4)nn3)c1OC(=O)CCCc1cn(CSc3ccccc3)nn1)C13CCCC(C)(C)C1CC2OC3=O (stereo not drawn)
Result block: low bin

Query block: Could you place CC(C)c1cc2c(c(OC(=O)CCc3cn(Cc4ccc([N+](=O)[O-])cc4)nn3)c1OC(=O)CCc1cn(Cc3ccc([N+](=O)[O-])cc3)nn1)C13CCCC(C)(C)C1CC2OC3=O (stereo not drawn) in its proper category? Many thanks.
Result block: high bin
